method notes: NCI Yeast Anticancer Drug Screen. Data for the cln2 rad14 strain (AID 165);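 note: 0% = growth equal to vehicle treated cultures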
stated conditions: S. cerevisiae cln2 rad14 strain, at 50.0 µM (retest, dose inferred, filed as 5.0), active compounds read high
This is part of a sample that, as a whole, favours compounds with a hit. Of some 79,000 tested, about 15% had one in any assay.
The entries below come with measured growth inhibition values attached.
Provide only the numeric value, understood in %.

Reference set, count: 4
>>> df
                                   molecule  attribute_measured  result_number
0  N=C1N=Nc2nc(C3(c4nc5n(c4O)C(=N)N=N5)Cc4ccccc4C3=O)c(O)n21 (stereo not given)   growth inhibition             10
1  Cc1c2ccnc(C(=O)NCCN(C)C)c2cc2c3cc(O)ccc3n(C)c12   growth inhibition             33
2  COc1cc(/C=N/Nc2nnc3c4ccccc4c4ncccc4c3n2)cc(OC)c1OC   growth inhibition             -6
3             NNC(=O)CCc1cc2ccccc2c2ccccc12   growth inhibition             98

Next, consider the following molecule.
Task item: What does the record list as growth inhibition for O=[N+]([O-])/C=C/c1cc(Cl)c(/C=C/[N+](=O)[O-])cc1Cl ?
Reply: 60
